biological target: UniProtKB P22411
pIC50: −log10 of the molar value. Where a name gives a salt, the structure may show the parent alone.
MEASUREMENT_KIND: pIC50

CC#CCn1c(=O)n(C)c2nc(O)nc(N3CCNCC3)c21 [Example 8, trifluoroacetic acid salt]	5.94

[a] CC#CCn1c(=O)[nH]c2nc(OC)nc(N3CCNCC3)c21 [Example 53, trifluoroacetic acid salt]
[b] CC#CCn1c(=O)n(CCc2ccccc2)c2nc(Cl)nc(N3CCNCC3)c21 [Example 34, trifluoroacetic acid salt]
[c] CC#CCn1c(=O)n(-c2ccc(=O)[nH]c2)c2ncnc(N3CCNCC3)c21 [Example 67, trifluoroacetic acid salt]
[d] CC#CCn1c(=O)n(Cc2ccccc2)c2nc(Cl)nc(N3CCNCC3)c21 [Example 36, trifluoroacetic acid salt]
Query: # desc sort on pIC50 across 4 molecules API: response body holds the labels in the requested order.
Reply: b, c, d, a

---

biological target: DPP-IV obtained from pig kidney (Sus scrofa); construct: DPP-IV obtained from pig kidney; from tissue; host or cells: pig kidney; assay: Measurement of DPPIV-inhibiting activity (in vitro experiment); type: biochemical; conditions: DPP-IV from pig kidney 10 mU/mL, substrate Gly-Pro-p-nitroanilide 0.33 mM, 20 min preincubation, 20 min reaction, absorbance 405 nm
Structures can show the parent of a compound that is named as a salt.
MEASUREMENT_KIND: IC50 (µM)

CC#CCn1c(=O)n(C)c2nc(OC)nc(N3CCNCC3)c21.O=C(O)C(F)(F)F [Example 1, trifluoroacetic acid salt]	0.24
CC#CCn1c(=O)n(C)c2ccnc(N3CCNCC3)c21	5.23
C=CCn1c(=O)n(CC#CC)c2c(N3CCNCC3)nc(OC)nc21.O=C(O)C(F)(F)F [Example 47, trifluoroacetic acid salt]	0.167

[P] CC#CCn1c(=O)n(CC2CC2)c2nc(Cl)nc(N3CCNCC3)c21 [Example 38, trifluoroacetic acid salt]
[Q] CC#CCn1c(=O)n(Cc2ccc(C#N)cc2)c2nc(OC)nc(N3CCNCC3)c21 [Example 49, trifluoroacetic acid salt]
[R] Cn1c(=O)n(Cc2ccccc2)c2c(N3CCNCC3)ncnc21 [Example 78, trifluoroacetic acid salt]
Query: Hi! Can you put these in order of IC50, lowest number first? # format: label list in the order the request specifies
Reply: Q, P, R
(Q: 0.04 µM, P: 0.15 µM, R: 3.8 µM)

---

pIC50: −log10 of the molar value. Counter-ions that a name gives are not always drawn.
Entries with reported pIC50 on DPP-IV obtained from pig kidney (Sus scrofa, UniProt P22411)
Sequence (P22411 whole entry): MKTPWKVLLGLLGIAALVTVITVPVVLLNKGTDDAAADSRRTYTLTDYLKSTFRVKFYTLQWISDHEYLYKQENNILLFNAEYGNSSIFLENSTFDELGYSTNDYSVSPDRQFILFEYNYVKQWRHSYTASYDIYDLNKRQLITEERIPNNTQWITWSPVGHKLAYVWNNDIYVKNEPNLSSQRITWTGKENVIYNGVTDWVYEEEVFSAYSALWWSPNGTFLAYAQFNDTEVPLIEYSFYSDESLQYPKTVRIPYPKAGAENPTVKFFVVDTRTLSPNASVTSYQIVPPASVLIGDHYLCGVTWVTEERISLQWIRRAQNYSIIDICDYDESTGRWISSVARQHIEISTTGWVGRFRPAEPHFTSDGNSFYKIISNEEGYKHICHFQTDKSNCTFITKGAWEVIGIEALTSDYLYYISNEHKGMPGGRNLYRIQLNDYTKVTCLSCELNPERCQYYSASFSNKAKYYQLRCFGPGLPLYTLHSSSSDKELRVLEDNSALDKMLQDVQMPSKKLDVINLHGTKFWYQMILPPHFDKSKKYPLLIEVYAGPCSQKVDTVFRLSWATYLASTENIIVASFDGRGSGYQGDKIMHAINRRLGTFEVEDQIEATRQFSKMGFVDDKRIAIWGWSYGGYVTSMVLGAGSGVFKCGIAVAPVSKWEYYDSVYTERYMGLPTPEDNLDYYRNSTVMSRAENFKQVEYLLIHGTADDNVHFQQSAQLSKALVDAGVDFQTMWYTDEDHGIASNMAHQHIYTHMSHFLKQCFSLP
MEASUREMENT_KIND: pIC50

Worked examples, 3 compounds total:
CC(C)=CCn1c(=O)n(C)c2nc(Cl)nc(N3CCNCC3)c21 [Example 19, trifluoroacetic acid salt]	5.27
CC#CCn1c(=O)n(-c2ccc(C#N)cc2)c2nc(Cl)nc(N3CCNCC3)c21 [Example 42, trifluoroacetic acid salt]	7.37
CC#CCn1c(=O)n(C)c2c(Oc3ccccc3C(N)=O)cnc(N3CCNCC3)c21 [Example 83, trifluoroacetic acid salt]	5.95

[a] CC#CCn1c(=O)n(-c2ccoc2)c2ncnc(N3CCNCC3)c21 [Example 63, trifluoroacetic acid salt]
[b] CC#CCn1c(=O)n(CC(N)=O)c2ncnc(N3CCNCC3)c21 [Example 71, trifluoroacetic acid salt]
Query: // returns a or b , whichever has the lower pIC50 Choose, then provide that item's label.
Reply: b

[P] CC#CCn1c(=O)n(CCc2ccccc2)c2ncnc(N3CCNCC3)c21 [Example 74, trifluoroacetic acid salt]
[Q] CC(C)=CCn1c(=O)n(C)c2ncnc(N3CCNCC3)c21 [Example 77, trifluoroacetic acid salt]
Query: In terms of reported pIC50, does P or Q have the smaller number? Selection: enter the item's label.
Reply: Q
(Q: 5.09, P: 7.85)

---

Counter-ions that a name gives are not always drawn.
Lab note: IC50 readings collected with DPP-IV obtained from pig kidney (Sus scrofa, UniProt P22411) for the following molecules.
MEASUREMENT_KIND: IC50 (nM)

CC#CCn1c(=O)n(CC2CC2)c2ncnc(N3CCNCC3)c21 [Example 72, trifluoroacetic acid salt]	141

[P] CC#CCn1c(=O)n(-c2ccc(=O)n(C)c2)c2ncnc(N3CCNCC3)c21 [Example 68, trifluoroacetic acid salt]
[Q] CC#CCn1c(=O)n(Cc2ccccc2C#N)c2ncnc(N3CCNCC3)c21 [Example 79, trifluoroacetic acid salt]
[R] CC#CCn1c(=O)n(C)c2nc(N(CC)CC)nc(N3CCNCC3)c21 [Example 3, trifluoroacetic acid salt]
[S] CCC#CCn1c(=O)n(C)c2nc(Cl)nc(N3CCNCC3)c21 [Example 18, trifluoroacetic acid salt]
Query: Reorder the items by IC50, least to greatest. Provide your answer as the labels ordered per the instruction.
Reply: Q, P, R, S
(Q: 4.2 nM, P: 187 nM, R: 325 nM, S: 972 nM)

[A] CC#CCn1c(=O)n(C)c2nc(OC(C)C)nc(N3CCNCC3)c21.O=C(O)C(F)(F)F [Example 7, trifluoroacetic acid salt]
[B] C=CCOc1nc(N2CCNCC2)c2c(n1)n(C)c(=O)n2CC#CC.O=C(O)C(F)(F)F [Example 15, trifluoroacetic acid salt]
Query: Of the two listed items, which has the higher IC50? First: A Second: B // respond with label for picked entry
Reply: B
(B: 319 nM, A: 199 nM)

---

pIC50: −log10 of the molar value. Structures can show the parent of a compound that is named as a salt.
The listing below reports pIC50 for compounds tested on DPP-IV obtained from pig kidney (Sus scrofa).
MEASUREMENT_KIND: pIC50

CC#CCn1c(=O)n(-c2ccoc2)c2nc(Cl)nc(N3CCNCC3)c21 [Example 44, trifluoroacetic acid salt]	6.88

[P] C=CCn1c(=O)n(CC#CC)c2c(N3CCNCC3)nc(OCC)nc21 [Example 59, trifluoroacetic acid salt]
[Q] CC#CCn1c(=O)n(-c2ccc(OC)cc2)c2nc(Cl)nc(N3CCNCC3)c21 [Example 43, trifluoroacetic acid salt]
Query: Problem: Given the entries P and Q , determine which has the lower reported pIC50. Let me know the label of the one you choose.
Reply: P

---

DPP-IV obtained from pig kidney (Sus scrofa) data, read-out pIC50
pIC50: −log10 of the molar value. Counter-ions that a name gives are not always drawn.
MEASUREMENT_KIND: pIC50

Worked examples, 3 compounds total:
N#Cc1ccccc1Cn1c(=O)n(Cc2ccccc2)c2c(N3CCNCC3)nccc21 [Example 80]	5.52
CC#CCn1c(=O)n(-c2ccccc2)c2ncnc(N3CCNCC3)c21 [Example 62, trifluoroacetic acid salt]	6.86
CC#CCn1c(=O)n(-c2ccccc2)c2nc(OC)nc(N3CCNCC3)c21.O=C(O)C(F)(F)F [Example 54, trifluoroacetic acid salt]	7.05

[A] Cn1c(=O)n(Cc2ccccc2)c2c(N3CCNCC3)nc(Cl)nc21 [Example 21, trifluoroacetic acid salt]
[B] CC#CCn1c(=O)n(C)c2nc(Oc3ccccc3C#N)nc(N3CCNCC3)c21.O=C(O)C(F)(F)F [Example 13, trifluoroacetic acid salt]
Query: Looking at recorded values for pIC50, does A or B come in lower? Mark your selection by writing its label.
Reply: A

---

target: DPP-IV obtained from pig kidney (Sus scrofa)
Where a name gives a salt, the structure may show the parent alone.
MEASUREMENT_KIND: IC50 (nM)

Worked cases, IC50 given:
CC#CCn1c(=O)n(CC(=O)OC)c2nc(Cl)nc(N3CCNCC3)c21 [Example 40, trifluoroacetic acid salt]	89.6
C=CCn1c(=O)n(CC#CC)c2c(N3CCNCC3)ncnc21.O=C(O)C(F)(F)F [Example 69, trifluoroacetic acid salt]	224
CC#CCn1c(=O)n(Cc2ccccc2C(N)=O)c2nc(Cl)nc(N3CCNCC3)c21 [Example 39, trifluoroacetic acid salt]	32.3
CC#CCn1c(=O)n(-c2ccccc2)c2nc(Cl)nc(N3CCNCC3)c21 [Example 41, trifluoroacetic acid salt]	91.7
CC#CCn1c(=O)n(C)c2nc(NC)nc(N3CCNCC3)c21 [Example 5, trifluoroacetic acid salt]	172

[a] CC#CCn1c(=O)n(-c2ccsc2)c2nc(Cl)nc(N3CCNCC3)c21 [Example 45, trifluoroacetic acid salt]
[b] CC#CCn1c(=O)n(-c2cccnc2)c2nc(Cl)nc(N3CCNCC3)c21.O=C(O)C(F)(F)F [Example 46, trifluoroacetic acid salt]
[c] CC#CCn1c(=O)n(C)c2nc(OCC)nc(N3CCNCC3)c21.O=C(O)C(F)(F)F [Example 10, trifluoroacetic acid salt]
Query: Would you mind ranking these compounds by ascending IC50? Give your ranking as a list of the labels in the requested order.
Reply: b, a, c

[1] CC#CCn1c(=O)n(CCC)c2nc(OC)nc(N3CCNCC3)c21.O=C(O)C(F)(F)F [Example 52, trifluoroacetic acid salt]
[2] C=CCn1c(=O)n(CC#CC)c2c(N3CCNCC3)nc(Oc3ccccc3C(N)=O)nc21 [Example 60, trifluoroacetic acid salt]
Query: Quick check, higher IC50 between 1 and 2 ? // return label of chosen record
Reply: 1

[a] CC#CCn1c(=O)n(C)c2nc(N)nc(N3CCNCC3)c21 [Example 6, trifluoroacetic acid salt]
[b] CC#CCn1c(=O)n(-c2ccnc(Cl)c2)c2ncnc(N3CCNCC3)c21.O=C(O)C(F)(F)F [Example 65, trifluoroacetic acid salt]
[c] CC#CCn1c(=O)n(-c2ccoc2)c2nc(OC)nc(N3CCNCC3)c21.O=C(O)C(F)(F)F [Example 56, trifluoroacetic acid salt]
Query: Order field: IC50 | Direction: descending (largest first) Show the ranking through the labels, in the order asked for.
Reply: a, c, b
